Listed here are compounds together with their documented IC50.
study-target: TNF-α
test-summary: Inhibition of TNFα in culture supernatant of LPS-stimulated peripheral human leukocytes, TNFα-specific enzyme immunoassay
condition: Periphere humane Leukozyten, LPS über 22 Std., Kulturüberstand

# compound, study-target, IC50 [nM]
records = [
    ("CC(=O)N(C(C)=O)c1c(C(=O)OC(C)(C)C)c2ccc(Br)ccc-2c1C(=O)OC(C)(C)C", "TNF-α", 500),
    ("CCOC(=O)c1c2ccc(CC(=O)NO)ccc-2c(C(=O)OCC)c1NC(C)=O", "TNF-α", 20),
    ("CCOC(=O)c1c2ccc(CC(=O)O)ccc-2c(C(=O)OCC)c1N", "TNF-α", 160),
    ("CC(=O)N(C(C)=O)c1c(C(=O)OC(C)(C)C)c2ccc(C(C(=O)OC(C)(C)C)C(=O)OC(C)(C)C)ccc-2c1C(=O)OC(C)(C)C", "TNF-α", 4200),
    ("CC(C)(C)OC(=O)c1c2cccccc-2c(C(=O)OC(C)(C)C)c1N", "TNF-α", 2800),
    ("CCOC(=O)c1c2ccc(CC(=O)O)ccc-2c(C(=O)O)c1N", "TNF-α", 10500),
    ("CC(C)(C)OC(=O)c1c2ccc(Br)ccc-2c(C(=O)OC(C)(C)C)c1N", "TNF-α", 2300),
    ("CCOC(=O)c1c2ccc(CC(=O)NO)ccc-2c(C(=O)OCC)c1N", "TNF-α", 1),
    ("CCOC(=O)c1c2ccc(C(C(=O)NC(N)=O)C(=O)OCC)ccc-2c(C(=O)OCC)c1N (centres unmarked)", "TNF-α", 15000),
    ("CCOC(=O)c1c2ccc(CC(=O)O)ccc-2c(C(=O)OCC)c1NC(C)=O", "TNF-α", 4100),
    ("CCOC(=O)c1c2cccccc-2c(C(=O)OC(C)(C)C)c1N", "TNF-α", 8000),
]
